Assay: Hemolysis assay
Assay type: cell-based, horse
Conditions: horse, erythrocytes (2% suspension); at the peptide's maximum MIC; relative to Triton X-100; read-out: Hemolysis under the Maximum MIC
Residues, ends and D or L forms follow the SMILES beside them.
The label is label 1 for hemolysis at 2 h below 10% and label 0 for hemolysis at 2 h equal to or exceeding 10%.

Field: example entries. Status: answers known.
[[record]]
compound = "CC[C@H](C)[C@H](NC(=O)[C@H](CCCNC(=N)N)NC(=O)[C@@H]1CCCN1C(=O)[C@H](CC(C)C)NC(=O)[C@@H](N)CCCNC(=N)N)C(=O)N[C@@H](CC(C)C)C(=O)N[C@@H](CCCNC(=N)N)C(=O)N[C@@H](CCCCN)C(=O)N[C@H](C(=O)N[C@H](C(=O)N[C@@H](CCCNC(=N)N)C(=O)N[C@@H](CCCNC(=N)N)C(=O)N[C@@H](CC(C)C)C(N)=O)C(C)C)[C@@H](C)CC [Crabrolin-AR, RLPRILRKIVRRL-NH2] (H-RLPRILRKIVRRL-NH2)"
answerlabel = "label 1"

[[record]]
compound = "CC[C@H](C)[C@H](NC(=O)[C@H](CCCNC(=N)N)NC(=O)[C@@H]1CCCN1C(=O)[C@H](CC(C)C)NC(=O)[C@@H](N)CCCNC(=N)N)C(=O)N[C@@H](CC(C)C)C(=O)N[C@@H](CCCNC(=N)N)C(=O)N[C@@H](CCCCN)C(=O)N[C@H](C(=O)N[C@H](C(=O)N[C@@H](CCCNC(=N)N)C(=O)N[C@@H](C)C(=O)N[C@@H](CC(C)C)C(N)=O)C(C)C)[C@@H](C)CC [Crabrolin-FR, RLPRILRKIVRAL-NH2] (H-RLPRILRKIVRAL-NH2)"
answerlabel = "label 1"

[[record]]
compound = "CC[C@H](C)[C@H](NC(=O)[C@H](CCCNC(=N)N)NC(=O)[C@@H]1CCCN1C(=O)[C@H](CC(C)C)NC(=O)[C@@H](N)Cc1ccccc1)C(=O)N[C@@H](CC(C)C)C(=O)N[C@@H](CCCNC(=N)N)C(=O)N[C@@H](CCCCN)C(=O)N[C@H](C(=O)N[C@H](C(=O)N[C@H](C(=O)N[C@@H](C)C(=O)N[C@@H](CC(C)C)C(N)=O)[C@@H](C)O)C(C)C)[C@@H](C)CC [Crabrolin-4R, FLPRILRKIVTAL-NH2] (H-FLPRILRKIVTAL-NH2)"
answerlabel = "label 1"

[[record]]
compound = "CC[C@H](C)[C@H](NC(=O)[C@H](CCCCN)NC(=O)[C@@H]1CCCN1C(=O)[C@H](CC(C)C)NC(=O)[C@@H](N)Cc1ccccc1)C(=O)N[C@@H](CC(C)C)C(=O)N[C@@H](CCCNC(=N)N)C(=O)N[C@@H](CCCCN)C(=O)N[C@H](C(=O)N[C@H](C(=O)N[C@H](C(=O)N[C@@H](C)C(=O)N[C@@H](CC(C)C)C(N)=O)[C@@H](C)O)C(C)C)[C@@H](C)CC [Crabrolin-4K, FLPKILRKIVTAL-NH2] (H-FLPKILRKIVTAL-NH2)"
answerlabel = "label 0"

[[record]]
compound = "CC[C@H](C)[C@H](NC(=O)[C@H](CCCNC(=N)N)NC(=O)[C@@H]1CCCN1C(=O)[C@H](CC(C)C)NC(=O)[C@@H](N)Cc1ccccc1)C(=O)N[C@@H](CC(C)C)C(=O)N[C@@H](CCCNC(=N)N)C(=O)N[C@@H](CCCCN)C(=O)N[C@H](C(=O)N[C@H](C(=O)N[C@@H](CCCNC(=N)N)C(=O)N[C@@H](C)C(=O)N[C@@H](CC(C)C)C(N)=O)C(C)C)[C@@H](C)CC [Crabrolin-TR, FLPRILRKIVRAL-NH2] (H-FLPRILRKIVRAL-NH2)"
answerlabel = "label 1"


Please turn your attention to the following entry.
query: Is hemolysis at 2 h strictly under 10% for the entry CC[C@H](C)[C@H](NC(=O)[C@H](CC(C)C)NC(=O)[C@@H]1CCCN1C(=O)[C@H](CC(C)C)NC(=O)[C@@H](N)Cc1ccccc1)C(=O)N[C@@H](CC(C)C)C(=O)N[C@@H](CCCNC(=N)N)C(=O)N[C@@H](CCCCN)C(=O)N[C@H](C(=O)N[C@H](C(=O)N[C@H](C(=O)N[C@@H](C)C(=O)N[C@@H](CC(C)C)C(N)=O)[C@@H](C)O)C(C)C)[C@@H](C)CC [Crabrolin, FLPLILRKIVTAL-NH2] (H-FLPLILRKIVTAL-NH2) ?
result: label 0
